Molecular target: Jak1 (Homo sapiens)
Construct: endogenous in cells; host or cells: TF1 cells
Test: Jak1 (PSTAT3 TF1) alpha screen assay: inhibition of IL-6 induced phosphorylation of STAT3 in TF1 cells
Format: cell-based
Conditions: calculated from tabulated EC50 data (Jak1 / Tyk2)
# Tyk2 selectivity over Jak1 values compiled below
Parameter measured: Tyk2 selectivity over Jak1

| Compound | Parameter measured | Recorded measurement |
| --- | --- | --- |
| CO[C@@]1(c2cc(C)cc(-c3cn(C)c4cnc(NC(C)=O)cc34)n2)CCOC1 [Example 2.2] | Tyk2 selectivity over Jak1 | 207-fold |
| CO[C@@]1(c2cc(C(F)F)cc(-c3cn(C)c4cnc(NC(C)=O)cc34)n2)CCOC1 [Example 2.8] | Tyk2 selectivity over Jak1 | 405-fold |
| COc1cc(-c2cn(C)c3cnc(NC(N)=O)cc23)nc([C@]2(OC)CCOC2)c1 [Example 12.6] | Tyk2 selectivity over Jak1 | 385-fold |
| CO[C@@]1(c2cc(C(F)F)cc(-c3cn(C4COC4)c4cnc(NC(N)=O)cc34)n2)CCOC1 [Example 12b.4] | Tyk2 selectivity over Jak1 | 889-fold |
| CC(=O)Nc1cc2c(-c3cc(C(F)F)cc([C@]4(CO)CCOC4)n3)cn(C)c2cn1 [Example 22.5] | Tyk2 selectivity over Jak1 | 98-fold |
| CO[C@]1(c2cc(OCC3COC3)cc(-c3cn(C)c4cnc(NC(C)=O)cc34)n2)CCOC1 [Example 6.2] | Tyk2 selectivity over Jak1 | 50-fold |
| CO[C@@]1(c2cc(OC[C@@H](C)O)cc(-c3cn(C)c4cnc(NC(C)=O)cc34)n2)CCOC1 [Example 14.6] | Tyk2 selectivity over Jak1 | 563-fold |
| CO[C@@]1(c2cc(OCC3COC3)cc(-c3cn(C)c4cnc(NC(C)=O)cc34)n2)CCOC1 [Example 6] | Tyk2 selectivity over Jak1 | 420-fold |
| CO[C@@]1(c2cc(OCC[C@H](C)O)cc(-c3cn(C)c4cnc(NC(C)=O)cc34)n2)CCOC1 [Example 9] | Tyk2 selectivity over Jak1 | 494-fold |
| CO[C@@]1(c2cc(C#N)cc(-c3cn(C)c4cnc(NC(N)=O)cc34)n2)CCOC1 [Example 12.3] | Tyk2 selectivity over Jak1 | 138-fold |
| CO[C@@]1(c2cc(C#N)cc(-c3cn([C@@H]4CC4(F)F)c4cnc(NC(N)=O)cc34)n2)CCOC1 [Example 12a.3] | Tyk2 selectivity over Jak1 | >1515-fold |
| CC[C@]1(c2cc(C#N)cc(-c3cn(C)c4cnc(NC(C)=O)cc34)n2)CCOC1 [Example 2.11] | Tyk2 selectivity over Jak1 | 72-fold |
| CC[C@@]1(c2cccc(-c3cn(C)c4cnc(NC(C)=O)cc34)n2)CCOC1 [Example 2.3] | Tyk2 selectivity over Jak1 | 188-fold |
| COc1cc(-c2cn([C@@H]3CCOC3)c3cnc(NC(C)=O)cc23)nc([C@]2(OC)CCOC2)c1 [Example 5.2] | Tyk2 selectivity over Jak1 | >641-fold |
| NC(=O)Nc1cc2c(-c3cccc(C4(O)COC4)n3)cn([C@@H]3CCOC3)c2cn1 [Example 15] | Tyk2 selectivity over Jak1 | 80-fold |
| COCc1cc(-c2cn(C)c3cnc(NC(C)=O)cc23)nc([C@]2(CO)CCOC2)c1 [Example 22] | Tyk2 selectivity over Jak1 | 72-fold |
| COc1cc(-c2cn(C)c3cnc(NC(C)=O)cc23)nc([C@]2(OC)CCOC2)c1 [Example 20] | Tyk2 selectivity over Jak1 | 328-fold |
| CO[C@H](C)COc1cc(-c2cn(C)c3cnc(NC(C)=O)cc23)nc([C@]2(OC)CCOC2)c1 [Example 22.10] | Tyk2 selectivity over Jak1 | >272-fold |

---

Molecular target: Jak2 (Homo sapiens, UniProt O60674)
Construct: Cell Type: UT7 cells engineered to express the erythropoietin (EPO) receptor; endogenous in cells; host or cells: UT7 cells engineered to express the EPO receptor
Sequence (O60674 whole entry): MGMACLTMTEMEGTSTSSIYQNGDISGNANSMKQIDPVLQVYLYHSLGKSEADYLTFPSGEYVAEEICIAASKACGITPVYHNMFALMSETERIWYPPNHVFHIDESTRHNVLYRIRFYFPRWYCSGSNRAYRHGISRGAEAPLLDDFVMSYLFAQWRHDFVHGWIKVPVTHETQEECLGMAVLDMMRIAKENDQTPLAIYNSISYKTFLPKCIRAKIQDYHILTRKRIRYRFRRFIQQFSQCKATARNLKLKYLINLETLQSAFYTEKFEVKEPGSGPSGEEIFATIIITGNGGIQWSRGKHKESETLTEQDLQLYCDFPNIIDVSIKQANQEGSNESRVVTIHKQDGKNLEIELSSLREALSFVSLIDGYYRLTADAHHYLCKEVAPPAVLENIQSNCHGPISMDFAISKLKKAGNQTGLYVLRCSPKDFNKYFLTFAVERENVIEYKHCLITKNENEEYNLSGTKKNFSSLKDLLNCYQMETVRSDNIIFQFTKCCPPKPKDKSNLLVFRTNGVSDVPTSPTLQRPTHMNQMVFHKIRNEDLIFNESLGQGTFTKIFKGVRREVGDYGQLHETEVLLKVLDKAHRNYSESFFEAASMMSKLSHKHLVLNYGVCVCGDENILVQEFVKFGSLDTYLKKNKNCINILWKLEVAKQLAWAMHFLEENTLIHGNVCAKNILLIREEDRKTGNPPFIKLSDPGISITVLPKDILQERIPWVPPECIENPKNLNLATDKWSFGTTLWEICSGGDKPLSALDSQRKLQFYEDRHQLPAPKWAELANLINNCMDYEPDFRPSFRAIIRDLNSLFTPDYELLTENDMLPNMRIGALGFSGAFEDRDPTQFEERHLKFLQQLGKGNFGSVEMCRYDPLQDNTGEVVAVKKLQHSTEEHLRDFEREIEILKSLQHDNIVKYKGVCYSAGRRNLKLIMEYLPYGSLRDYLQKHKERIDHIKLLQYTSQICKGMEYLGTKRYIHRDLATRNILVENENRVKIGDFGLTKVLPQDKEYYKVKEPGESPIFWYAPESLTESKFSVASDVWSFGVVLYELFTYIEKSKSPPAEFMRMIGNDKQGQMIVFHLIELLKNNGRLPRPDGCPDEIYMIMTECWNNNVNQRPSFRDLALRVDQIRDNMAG
Test: Jak2 (PSTATS UT7) alpha screen assay: inhibition of EPO induced phosphorylation of STAT5 in UT7 cells
Format: cell-based
Conditions: calculated from tabulated EC50 data (Jak2 / Tyk2)

| Molecule | Tyk2 selectivity over Jak2 |
| --- | --- |
| CO[C@@]1(c2cc(OCCO)cc(-c3cn(C)c4cnc(NC(C)=O)cc34)n2)CCOC1 [Example 10] | >275-fold |
| CO[C@@]1(c2cccc(-c3cn([C@H]4C[C@H](C#N)C4)c4cnc(NC(C)=O)cc34)n2)CCOC1 [Example 17] | >806-fold |
| CO[C@@]1(c2cc(C)cc(-c3cn(C)c4cnc(NC(C)=O)cc34)n2)CCOC1 [Example 2.2] | >126-fold |
| CO[C@@]1(c2cc(C(F)F)cc(-c3cn(C4COC4)c4cnc(NC(C)=O)cc34)n2)CCOC1 [Example 4.3] | >144-fold |
| CO[C@@]1(c2cc(C(F)F)cc(-c3cn(C)c4cnc(NC(C)=O)cc34)n2)CCOC1 [Example 2.8] | >595-fold |
| COCCOc1cc(-c2cn(C)c3cnc(NC(C)=O)cc23)nc([C@]2(CO)CCOC2)c1 [Example 22.8] | >136-fold |
| CO[C@@]1(c2cc(C#N)cc(-c3cn(C)c4cnc(NC(N)=O)cc34)n2)CCOC1 [Example 12.3] | >266-fold |
| COCc1cc(-c2cn(C3COC3)c3cnc(NC(C)=O)cc23)nc([C@]2(OC)CCOC2)c1 [Example 4] | >182-fold |
| COCc1cc(-c2cn(C)c3cnc(NC(C)=O)cc23)nc([C@]2([C@@H](C)O)CCOC2)c1 [Example 22.4] | >223-fold |
| CO[C@@]1(c2cc(OCC[C@H](C)O)cc(-c3cn(C)c4cnc(NC(C)=O)cc34)n2)CCOC1 [Example 9] | >294-fold |
| CO[C@@]1(c2cc(OC[C@@H](C)O)cc(-c3cn(C)c4cnc(NC(C)=O)cc34)n2)CCOC1 [Example 14.6] | >287-fold |
| COc1cc(-c2cn(C)c3cnc(NC(N)=O)cc23)nc([C@]2(OC)CCOC2)c1 [Example 12.6] | >641-fold |
| COCc1cc(-c2cn(C)c3cnc(NC(C)=O)cc23)nc([C@@]2(CO)CCOC2)c1 [Example 22a] | >21-fold |
| CO[C@@]1(c2cc(OC[C@H](C)O)cc(-c3cn(C)c4cnc(NC(C)=O)cc34)n2)CCOC1 [Example 14.5] | >171-fold |
| CO[C@@]1(c2cc(C(F)F)cc(-c3cn(C)c4cnc(NC(=O)CO)cc34)n2)CCOC1 [Example 26] | >500-fold |
| COCc1cc(-c2cn(C)c3cnc(NC(=O)CO)cc23)nc([C@]2(OC)CCOC2)c1 [Example 24] | >272-fold |
| COCc1cc(-c2cn(C)c3cnc(NC(C)=O)cc23)nc([C@]2(OC)CCOC2)c1 [Example 2] | >198-fold |
| CC(=O)Nc1cc2c(-c3cccc([C@]4(CO)CCOC4)n3)cn(C)c2cn1 [Example 21] | >313-fold |
| CO[C@@]1(c2cc(O[C@H]3C[C@H](O)C3)cc(-c3cn(C)c4cnc(NC(C)=O)cc34)n2)CCOC1 [Example 11] | >481-fold |
| CO[C@@]1(c2cc(C)cc(-c3cn(C)c4cnc(NC(N)=O)cc34)n2)CCOC1 [Example 1b.2] | >1000-fold |
| CO[C@@]1(c2cc(C#N)cc(-c3cn([C@@H]4CC4(F)F)c4cnc(NC(C)=O)cc34)n2)CCOC1 [Example 2a.3] | >197-fold |

---

Molecular target: Jak2 (Homo sapiens)
Construct: Cell Type: UT7 cells engineered to express the erythropoietin (EPO) receptor; endogenous in cells
Experiment: Jak2 (PSTATS UT7) alpha screen assay: inhibition of EPO induced phosphorylation of STAT5 in UT7 cells
Conditions: EPO induced pSTAT5, UT7 cells
Parameter measured: EC50

| Structure smiles string | Parameter measured | Recorded measurement |
| --- | --- | --- |
| COCc1cc(-c2cn(C)c3cnc(NC(C)=O)cc23)nc([C@]2([C@H](C)O)CCOC2)c1 | EC50 | > 25 µM |
| COCc1cc(-c2cn(C)c3cnc(NC(C)=O)cc23)nc([C@]2([C@@H](C)O)CCOC2)c1 | EC50 | > 25 µM |

---

Biological target: Jak1 (Homo sapiens, UniProt P23458)
Construct: endogenous in cells; host or cells: TF1 cells
Sequence (P23458 whole entry): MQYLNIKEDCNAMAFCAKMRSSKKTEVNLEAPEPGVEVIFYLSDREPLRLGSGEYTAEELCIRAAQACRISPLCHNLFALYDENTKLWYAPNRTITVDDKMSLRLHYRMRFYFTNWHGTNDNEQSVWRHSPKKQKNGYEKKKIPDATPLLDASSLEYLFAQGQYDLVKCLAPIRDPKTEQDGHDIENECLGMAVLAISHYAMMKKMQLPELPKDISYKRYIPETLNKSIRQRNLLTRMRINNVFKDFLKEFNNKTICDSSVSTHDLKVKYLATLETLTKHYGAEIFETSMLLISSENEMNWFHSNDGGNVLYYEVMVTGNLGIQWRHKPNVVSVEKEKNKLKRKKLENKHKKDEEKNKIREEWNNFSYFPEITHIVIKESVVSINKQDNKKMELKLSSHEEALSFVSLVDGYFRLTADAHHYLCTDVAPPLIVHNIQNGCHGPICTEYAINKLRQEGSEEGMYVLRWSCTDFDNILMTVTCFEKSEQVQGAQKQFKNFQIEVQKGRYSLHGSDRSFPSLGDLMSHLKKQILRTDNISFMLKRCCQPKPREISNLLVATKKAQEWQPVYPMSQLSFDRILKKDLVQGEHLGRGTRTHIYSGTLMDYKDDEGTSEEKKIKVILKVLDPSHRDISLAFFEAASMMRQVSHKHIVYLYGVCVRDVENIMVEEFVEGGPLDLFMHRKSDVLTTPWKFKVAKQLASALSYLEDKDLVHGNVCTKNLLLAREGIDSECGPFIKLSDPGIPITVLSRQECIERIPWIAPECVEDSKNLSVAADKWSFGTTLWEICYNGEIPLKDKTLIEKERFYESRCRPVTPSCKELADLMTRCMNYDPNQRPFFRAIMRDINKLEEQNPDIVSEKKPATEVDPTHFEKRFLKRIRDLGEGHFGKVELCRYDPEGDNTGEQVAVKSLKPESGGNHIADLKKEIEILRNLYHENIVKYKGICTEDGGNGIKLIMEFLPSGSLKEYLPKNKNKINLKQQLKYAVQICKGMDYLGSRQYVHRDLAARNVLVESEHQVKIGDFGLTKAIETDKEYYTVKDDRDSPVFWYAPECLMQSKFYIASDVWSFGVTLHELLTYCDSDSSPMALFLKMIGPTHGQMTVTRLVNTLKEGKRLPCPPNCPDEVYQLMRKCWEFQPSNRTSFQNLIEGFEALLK
Assay: Jak1 (PSTAT3 TF1) alpha screen assay: inhibition of IL-6 induced phosphorylation of STAT3 in TF1 cells
Type: cell-based
Conditions: calculated from tabulated EC50 data (Jak1 / Tyk2)

| Compound | Tyk2 selectivity over Jak1 |
| --- | --- |
| CO[C@@]1(c2cc(C(F)F)cc(-c3cn([C@@H]4CCOC4)c4cnc(NC(N)=O)cc34)n2)CCOC1 [Example 12b.2] | 2667-fold |
| Cn1cc(-c2cncc([C@]3(C)CCOC3)n2)c2cc(NC(N)=O)ncc21 | 83-fold |
| CO[C@@]1(c2cc(C(F)F)cc(-c3cn(C)c4cnc(NC(=O)CO)cc34)n2)CCOC1 | >500-fold |
| CO[C@@]1(c2cc(OCCO)cc(-c3cn(C)c4cnc(NC(C)=O)cc34)n2)CCOC1 | 297-fold |
| COCc1cc(-c2cn(C3COC3)c3cnc(NC(C)=O)cc23)nc([C@]2(OC)CCOC2)c1 | >730-fold |
| CO[C@@]1(c2cccc(-c3cn([C@H]4C[C@H](C#N)C4)c4cnc(NC(C)=O)cc34)n2)CCOC1 | 871-fold |
| Cn1cc(-c2cncc([C@@]3(C)CCOC3)n2)c2cc(NC(N)=O)ncc21 | 22-fold |
| CO[C@@]1(c2cncc(-c3cn(C)c4cnc(NC(N)=O)cc34)n2)CCOC1 | 66-fold |
